Sourced from patent US8143296B2

Would you mind telling me the reported melting point of each entry?

Return melting point (reported value) for this compound: Cl.NC(N)=Nc1nc(CC(=O)Nc2ccc(F)cc2)cs1 [KHG23171]
207.3 to 208.2 °C

Return melting point (reported value) for this compound: Cl.NC(N)=Nc1nc(CC(=O)Nc2ccc(Br)cc2)cs1 [KHG23178]
246.4 to 247 °C

Return melting point (reported value) for this compound: CCc1ccc(NC(=O)Cc2csc(N=C(N)N)n2)cc1.Cl [KHG23186]
228 to 229.1 °C

Return melting point (reported value) for this compound: Cc1ccc(NC(=O)Cc2csc(N=C(N)N)n2)c(Br)c1.Cl [KHG23191]
219.7 to 220.5 °C

Return melting point (reported value) for this compound: Cl.NC(N)=Nc1nc(CC(=O)NCc2ccc(F)c(F)c2)cs1 [KHG23189]
206.9 to 207.6 °C

Return melting point (reported value) for this compound: Cl.NC(N)=Nc1nc(CC(=O)Nc2ccc(Cl)cc2)cs1 [KHG23184]
244.3 to 245 °C

Return melting point (reported value) for this compound: Cc1ccc(NC(=O)Cc2csc(N=C(N)N)n2)cc1Cl.Cl [KHG23170]
238.6 to 240.4 °C

Return melting point (reported value) for this compound: Cl.NC(N)=Nc1nc(CC(=O)Nc2ccccc2)cs1 [KHG23177]
197.8 to 198.1 °C

Return melting point (reported value) for this compound: Cc1ccc(CNC(=O)Cc2csc(N=C(N)N)n2)cc1.Cl [KHG23187]
187.9 to 188.6 °C

Return melting point (reported value) for this compound: Cl.N#Cc1ccc(NC(=O)Cc2csc(N=C(N)N)n2)cc1 [KHG23176]
218.4 to 219.4 °C

====

Would you mind telling me the reported melting point of each entry?

Return melting point (reported value) for this compound: Cc1ccc(NC(=O)Cc2csc(N=C(N)N)n2)cc1.Cl
236.2 to 238.3 °C

Return melting point (reported value) for this compound: CCOc1ccc(NC(=O)Cc2csc(N=C(N)N)n2)cc1.Cl
242.1 to 242.6 °C

Return melting point (reported value) for this compound: Cl.NC(N)=Nc1nc(CC(=O)Nc2cc(Cl)cc(Cl)c2)cs1
248.5 to 249.2 °C

Return melting point (reported value) for this compound: Cl.NC(N)=Nc1nc(CC(=O)Nc2cc(Cl)ccc2F)cs1
209.3 to 210 °C

====

observation.type: melting point

Return melting point (reported value) for this compound: COc1ccc(NC(=O)Cc2csc(N=C(N)N)n2)cc1F.Cl [KHG23179]
225.8 to 228.4 °C

Return melting point (reported value) for this compound: Cl.NC(N)=Nc1nc(CC(=O)Nc2ccc(Cl)cc2F)cs1 [KHG23173]
237.2 to 239.8 °C

Return melting point (reported value) for this compound: Cl.NC(N)=Nc1nc(CC(=O)Nc2ccc(F)cc2Cl)cs1 [KHG23169]
232.8 to 233.9 °C
